# Test Summary: physchem
# Applied Conditions: pH 2.2, aqueous buffer, kinetic from dmso stock, Solubility (pH 2.2)
Value Kind: solubility at 24 h (µg/mL)
Dear colleague, please return just the value in µg/mL, with no unit written.

The recorded solubility at 24 h for entry `Cc1cc(COc2c(C)cccc2-c2csc(N3C[C@H]4C[C@@]4(C(=O)O)[C@@H]3C)n2)cc2c1CN(C1CCOCC1)CC2` equals 97

Noted for COC[C@H]1N(c2nccc(-c3cccc(C)c3OCc3cc(C)c4c(c3)CCN(C3CCOCC3)C4)n2)CC2C[C@@]21C(=O)O (some centres unmarked) : its solubility at 24 h reads 156

Reported solubility at 24 h ( `Cc1ccc(OCc2ccc3c(c2)CCN(C2COC2)C3)c(-c2cccc(N3CC[C@@]4(C(=O)O)C[C@H]4C3)n2)c1` ) = 100

In plain terms, `Cc1cc(COc2c(C)cccc2-c2csc(N3CC[C@@]4(C(=O)O)C[C@H]4C3)n2)c(C)c2c1CN(C1CCOCC1)CC2` has a documented solubility at 24 h of 120

`CO[C@H]1CN(c2cccc(-c3cc(C)ccc3OCc3ccc4c(c3C)CCN(C3CCOCC3)C4)n2)CC[C@H]1C(=O)O` yielded solubility at 24 h of 130

Given item `CCO[C@H]1CN(c2cccc(-c3cccc(C)c3OCc3cc4c(c(OC)c3)CN(C3CCOCC3)CC4)n2)CC[C@H]1C(=O)O` , the value recorded as its solubility at 24 h is 128

For reference, reported solubility at 24 h for `Cc1cc(COc2c(C)cccc2-c2csc(N3C[C@@H]4C[C@]4(C(=O)O)C3)n2)cc2c1CN(C1COC1)CC2` stands at 96

solubility at 24 h recorded for this compound, `CO[C@@H]1CN(c2cccc(-c3cc(C)ccc3OCc3ccc4c(c3)CCN(C3CCOCC3)C4)n2)CC[C@@H]1C(=O)O` , is 120

For reference, reported solubility at 24 h for `Cc1c(COc2ccccc2-c2cccc(N3CC[C@@]4(C(=O)O)C[C@H]4C3)n2)ccc2c1CCN(Cc1cncn1C)C2` stands at 135

Per the record, `Cc1cc(COc2c(C)cccc2-c2csc(N3CC[C@@]4(C(=O)O)C[C@H]4C3)n2)c(C)c2c1CN(C1COC1)CC2` has solubility at 24 h of 130

Short answer for `COc1cc(COc2c(Cl)cccc2-c2csc(N3CC[C@H](C(=O)O)[C@H](OC)C3)n2)cc2c1CN(C1CCOCC1)CC2` : solubility at 24 h was 117

solubility at 24 h measured on `COCc1cc(COc2c(C)cccc2-c2cccc(N3C[C@@H]4C[C@]4(C(=O)O)[C@H]3COC)n2)cc2c1CN(C1COC1)CC2` = 120

// field: solubility at 24 h; key: `Cc1cc(COc2ccccc2-c2cccc(N3CC[C@@]4(C(=O)O)C[C@H]4C3)n2)cc2c1CN(C1CCOCC1)CC2` ; value = 110

Noted for `CO[C@H]1CN(c2cccc(-c3cccc(C)c3OCc3ccc4c(c3C)CCN(C3COC3)CC4)n2)CC[C@H]1C(=O)O` : its solubility at 24 h reads 137

Noted for `Cc1ccc(OCc2cnc3c(c2)CCN(C2CCOCC2)C3)c(-c2csc(N3CC[C@@]4(C(=O)O)C[C@H]4C3)n2)c1` : its solubility at 24 h reads 140

Sure, the documented solubility at 24 h for `CCc1cc(COc2c(C)cccc2-c2csc(N3CC[C@@H](C(=O)O)[C@@H](OC)C3)n2)cc2c1CN(C1CCOCC1)CC2` is 130

What the record says about `COC[C@H]1N(c2cccc(-c3cccc(C)c3OCc3cc(C)c4c(c3C)CCN(C3CCOCC3)C4)n2)C[C@@H]2C[C@@]21C(=O)O` : solubility at 24 h is 143

Record summary for `Cc1c(COc2ccccc2-c2ccnc(N3C[C@@H]4C[C@]4(C(=O)O)C3)n2)ccc2c1CCN(C1CCOCC1)C2` : reported solubility at 24 h = 110

Notebook: `CO[C@H]1CN(c2cccc(-c3cccc(C)c3OCc3ccc4c(c3C)CCN(C3CCOCC3)CC4)n2)CC[C@@H]1C(=O)O` , solubility at 24 h read as 132

Record summary for Cc1cc(COc2c(C)cccc2-c2csc(N3CC[C@@]4(C(=O)O)C[C@H]4C3)n2)c(C)c2c1CN(C1CCCOC1)CC2 (some centres unmarked) : reported solubility at 24 h = 120

Looking up `CO[C@@H]1CN(c2cccc(-c3cccc(C)c3OCc3ccc4c(c3C)CN(C3CCOCC3)C4)n2)CC[C@@H]1C(=O)O` , I found its solubility at 24 h recorded as 127

Lab book: solubility at 24 h of Cc1ccc(OCc2ccc3c(c2C)CCN(C2CCOC2)C3)c(-c2csc(N3CC[C@@]4(C(=O)O)C[C@H]4C3)n2)c1 (some centres unmarked) noted as 120

Short answer for `CO[C@H]1CN(c2cccc(-c3cccc(C)c3OCc3ccc4c(c3C)CCN(C3COC3)C4)n2)CC[C@H]1C(=O)O` : solubility at 24 h was 100

Documented solubility at 24 h of `COC[C@H]1N(c2cccc(-c3cccc(C)c3OCc3ccc4c(c3C)CCN(C3COC3)C4)n2)C[C@@H]2C[C@@]21C(=O)O` : 110

// `CO[C@H]1CN(c2nc(-c3cccc(Cl)c3OCc3ccc4c(c3)[C@@H](C)CN(C3CCOCC3)CC4)cs2)CC[C@H]1C(=O)O` : solubility at 24 h value = 109

Short answer for `Cc1cccc(-c2cccc(N3C[C@@H]4C[C@]4(C(=O)O)C3)n2)c1OCc1ccc2c(c1C)CCN(C1CCOCC1)CC2` : solubility at 24 h was 110

###

Give measured solubility at 24 h for each item. Keep answers brief.
# Test Summary: physchem
# Applied Conditions: pH 2.2, aqueous buffer, kinetic from dmso stock, Solubility (pH 2.2)
# value in µg/mL; strip the unit string

// sample `Cc1cccc(-c2csc(N3C[C@@H]4C[C@]4(C(=O)O)C3)n2)c1OCc1ccc2c(c1C)CCN(C1COC1)C2` , its solubility at 24 h was 100

// solubility at 24 h lookup, compound = `CCO[C@@H]1CN(c2nc(-c3cccc(C)c3OCc3cc4c(c(OC)c3)CN(C3CCOCC3)CC4)cs2)CC[C@@H]1C(=O)O` , result: 148

Briefly, solubility at 24 h measured for `COCc1cc(COc2c(C)cccc2-c2cccc(N3C[C@@H]4C[C@]4(C(=O)O)[C@H]3COC)n2)cc2c1CN(C1CCOCC1)CC2` : 128

Lookup result for `CO[C@@H]1CN(c2cccc(-c3cccc(C)c3OCc3ccc4c(c3C)CCN(C3COC3)CC4)n2)CC[C@H]1C(=O)O` ; measured solubility at 24 h: 119

Entry `CCO[C@H]1CN(c2nccc(-c3cccc(C)c3OCc3ccc4c(c3C)CCN(C3CCOCC3)CC4)n2)CC[C@H]1C(=O)O` ; solubility at 24 h = 117

Looking up `CCc1cc(COc2c(C)cccc2-c2cccc(N3C[C@@H]4C[C@]4(C(=O)O)[C@H]3COC)n2)cc2c1CN(C1CCOCC1)CC2` , I see its solubility at 24 h listed as 130

###

# Test Summary: physchem
# Applied Conditions: pH 2.2, aqueous buffer, kinetic from dmso stock, Solubility (pH 2.2)
Would you mind telling me the reported solubility at 24 h of each entry?
State just the number; it will be interpreted in µg/mL.

response.value for `CO[C@H]1CN(c2cccc(-c3cccc(C)c3OCc3ccc4c(c3C)CCN(C3COC3)CC4)n2)CC[C@@H]1C(=O)O` (field: solubility at 24 h) = 123

Entry `CO[C@H]1CN(c2nc(-c3cccc(C)c3OCc3cc(C)c4c(c3F)CCN(C3CCOCC3)C4)cs2)CC[C@H]1C(=O)O` ; solubility at 24 h = 126

The recorded solubility at 24 h for entry `COc1cc(COc2ccc(C)cc2-c2csc(N3CC[C@@H](C(=O)O)[C@@H](OC)C3)n2)c(F)c2c1CN(C1CCOCC1)CC2` equals 134

# solubility at 24 h (compound: `COC[C@H]1N(c2nc(-c3cccc(C)c3OCc3cc(C)c4c(c3)CCN(C3CCOCC3)C4)cs2)C[C@@H]2C[C@@]21C(=O)O` ) is 120

Looking up `Cc1cccc(-c2csc(N3C[C@@H]4C[C@]4(C(=O)O)C3)n2)c1OCc1ccc2c(c1)CCN(C1CCOCC1)C2` , I found its solubility at 24 h recorded as 100

According to the records, this compound Cc1cc(COc2c(C)cccc2-c2cccc(N3C[C@@H]4C[C@]4(C(=O)O)C3)n2)cc2c1CN(C1CCOC1)CC2 (some centres unmarked) displays solubility at 24 h of 110

According to the records, this compound `CCO[C@@H]1CN(c2nc(-c3cccc(C)c3OCc3cc(C)c4c(c3F)CCN(C3CCOCC3)C4)cs2)CC[C@@H]1C(=O)O` displays solubility at 24 h of 129

response.value for `COC[C@H]1N(c2cccc(-c3cccc(C)c3OCc3cc(C#N)c4c(c3)CCN(C3CCOCC3)C4)n2)C[C@@H]2C[C@@]21C(=O)O` (field: solubility at 24 h) = 167

Input Cc1ccc(OCc2cc(C)c3c(c2)CCN(CC2COCCO2)C3)c(-c2csc(N3CC[C@@]4(C(=O)O)C[C@H]4C3)n2)c1 (some centres unmarked) . Output solubility at 24 h: 130

// solubility at 24 h lookup, compound = `COc1ccc(OCc2ccc3c(c2C)CCN(C2COC2)C3)c(-c2csc(N3CC[C@@]4(C(=O)O)C[C@H]4C3)n2)c1` , result: 132

Lab note: measured solubility at 24 h of COC[C@H]1N(c2cccc(-c3cccc(C)c3OCc3cc(C)c4c(c3)CCN(C3CCOC3)C4)n2)C[C@@H]2C[C@@]21C(=O)O (some centres unmarked) [Compound 50] was 120

// field: solubility at 24 h; key: `CO[C@H]1CN(c2nc(-c3cc(C)ccc3OCc3cc(C)c4c(c3C)CCN(C3CCOCC3)C4)cs2)CC[C@H]1C(=O)O` ; value = 120

Per the record, `Cc1ccc(OCc2ccc3c(c2)CCN(C2CCOCC2)C3)c(-c2csc(N3C[C@@H]4C[C@]4(C(=O)O)[C@H]3C)n2)c1` has solubility at 24 h of 120

Per the record, `COC[C@H]1N(c2cccc(-c3cccc(C)c3OCc3cnc4c(c3)CCN(C3CCOCC3)CC4)n2)C[C@@H]2C[C@@]21C(=O)O` has solubility at 24 h of 158

Looking up `CO[C@H]1CN(c2nc(-c3cccc(C)c3OCc3cc(C)c4c(c3)CCN(C3CCOCC3)CC4)cs2)CC[C@H]1C(=O)O` , I found its solubility at 24 h recorded as 109

Recorded solubility at 24 h (compound `CO[C@H]1CN(c2cccc(-c3cccc(C)c3OCc3ccc4c(c3F)CCN(C3CCOCC3)CC4)n2)CC[C@H]1C(=O)O` ): 133

Lab note: `Cc1cc(COc2c(C)cccc2-c2csc(N3C[C@@H]4C[C@]4(C(=O)O)C3)n2)cc2c1CN(C1CCOCC1)CC2` gave solubility at 24 h of 100

For record Cc1cccc(-c2csc(N3CC[C@@]4(C(=O)O)C[C@H]4C3)n2)c1OCc1ccc2c(c1C)CCN(C1CCOC1)C2 (some centres unmarked) the listed solubility at 24 h is 120

Lab note: measured solubility at 24 h of `Cc1cccc(-c2csc(N3CC[C@@]4(C(=O)O)C[C@H]4C3)n2)c1OCc1ccc2c(c1)CCN(C1COC1)C2` was 120

Summary for this compound, `COC[C@H]1N(c2cccc(-c3cccc(C)c3OCc3ccc4c(c3)[C@H](C)CN(C3CCOCC3)CC4)n2)C[C@@H]2C[C@@]21C(=O)O` : solubility at 24 h is 145

The recorded solubility at 24 h for entry `CO[C@@H]1CN(c2nc(-c3cc(F)cc(C)c3OCc3ccc4c(c3C)CCN(C3CCOCC3)CC4)cs2)CC[C@@H]1C(=O)O` equals 103

Entry `Cc1cccc(-c2cccc(N3CC[C@@]4(C(=O)O)C[C@H]4C3)n2)c1OCc1ccc2c(c1C)CCN(C1CCOCC1)C2` , solubility at 24 h reported as 120

Form: compound = `Cc1ccc(OCc2ccc3c(c2)CCN(C2CCOCC2)C3=O)c(-c2csc(N3CC[C@@]4(C(=O)O)C[C@H]4C3)n2)c1` ; solubility at 24 h = 48

Lab note: Cc1cccc(-c2cccc(N3CC4OCC3C4C(=O)O)n2)c1OCc1ccc2c(c1C)CCN(C1CCOCC1)C2 (centres unmarked) gave solubility at 24 h of 118

response.value for `CO[C@@H]1CN(c2cccc(-c3cccc(C)c3OCc3ccc4c(c3C)CCN(C3COC3)CC4)n2)CC[C@@H]1C(=O)O` (field: solubility at 24 h) = 117
